# ASSAY_TARGET: recombinant human PAI-1 (Homo sapiens, UniProt P05121)
# Construct: purchased Molecular Innovations, Inc
# Sequence (P05121 24-402): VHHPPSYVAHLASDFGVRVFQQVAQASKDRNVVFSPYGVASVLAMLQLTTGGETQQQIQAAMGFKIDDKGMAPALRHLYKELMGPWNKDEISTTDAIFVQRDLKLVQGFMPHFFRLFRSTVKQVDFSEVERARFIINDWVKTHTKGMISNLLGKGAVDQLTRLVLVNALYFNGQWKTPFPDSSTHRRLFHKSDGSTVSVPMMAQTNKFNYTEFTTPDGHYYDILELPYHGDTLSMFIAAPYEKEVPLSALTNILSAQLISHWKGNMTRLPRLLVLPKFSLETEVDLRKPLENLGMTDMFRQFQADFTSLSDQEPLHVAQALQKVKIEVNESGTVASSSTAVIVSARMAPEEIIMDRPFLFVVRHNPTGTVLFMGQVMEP
# PROTOCOL_SUMMARY: Test Example 2: human PAI-1 inhibitory activity (tPA fluorogenic substrate, pH 7.4 HEPES buffer)
# Type: biochemical
# CONDITION_CONTEXT: human PAI-1; compound concentration 1 μM
MEASUREMENT_TYPE: Inhibition Rate of PAI-1 Activity (%)

Recorded results for 5 compounds are shown here.
compound=CC(C)(C)c1cccc(Oc2ccc(-c3ccc(OC(F)(F)F)cc3)cc2CCC(=O)O)c1 assay_target="recombinant human PAI-1 (Homo sapiens, UniProt P05121)" measurement_type="Inhibition Rate of PAI-1 Activity (%)" result=50%
compound=Cc1cc(C)cc(COc2ccc(-c3ccc(OC(F)(F)F)cc3)cc2N(CCCCc2ccccc2)C(=O)C(=O)O)c1 assay_target="recombinant human PAI-1 (Homo sapiens, UniProt P05121)" measurement_type="Inhibition Rate of PAI-1 Activity (%)" result=98%
compound=CC(C)(C)c1ccc(Oc2cc(-c3ccc(F)cc3)ccc2OCC(=O)O)cc1 assay_target="recombinant human PAI-1 (Homo sapiens, UniProt P05121)" measurement_type="Inhibition Rate of PAI-1 Activity (%)" result=42%
compound=CC(C)(C)c1cccc(Oc2cc(-c3ccc(OC(F)(F)F)cc3)ccc2OCC(=O)O)c1 assay_target="recombinant human PAI-1 (Homo sapiens, UniProt P05121)" measurement_type="Inhibition Rate of PAI-1 Activity (%)" result=63%
compound=CCCCCCCOc1cc(N(CCCCc2ccccc2)C(=O)C(=O)O)ccc1-c1ccc(OC(F)(F)F)cc1 assay_target="recombinant human PAI-1 (Homo sapiens, UniProt P05121)" measurement_type="Inhibition Rate of PAI-1 Activity (%)" result=>99%

Given "O=C(O)C(=O)N(Cc1ccc(-c2ccc(OC(F)(F)F)cc2)cc1)c1ccccc1" , respond with its Inhibition Rate of PAI-1 Activity (%).
5%

Give the reported Inhibition Rate of PAI-1 Activity (%) for this compound. "COc1ccc(-c2ccc(OCC(=O)O)c(Oc3ccc(C(C)(C)C)cc3)c2)cc1"
12%

Tell me Inhibition Rate of PAI-1 Activity (%) reported for "CC(C)(C)c1ccc(Cc2cc(-c3ccc(OC(F)(F)F)cc3)ccc2OCC(=O)O)cc1"
81%

Query Inhibition Rate of PAI-1 Activity (%) for "O=C(O)CCCCCCCCOc1ccc(-c2ccc(OC(F)(F)F)cc2)cc1N(CCCCc1ccccc1)C(=O)C(=O)O"
38%

Tell us which Inhibition Rate of PAI-1 Activity (%) value is on record for "CC(C)(C)c1ccc(COc2ccc(N3CCN(c4ccc(OC(F)(F)F)cc4)CC3)cc2/C=C/C(=O)O)cc1"
73%
